tgt: GABAC receptor ρ1 subunit (homomeric) (Homo sapiens)
Sequence (P24046 22-479): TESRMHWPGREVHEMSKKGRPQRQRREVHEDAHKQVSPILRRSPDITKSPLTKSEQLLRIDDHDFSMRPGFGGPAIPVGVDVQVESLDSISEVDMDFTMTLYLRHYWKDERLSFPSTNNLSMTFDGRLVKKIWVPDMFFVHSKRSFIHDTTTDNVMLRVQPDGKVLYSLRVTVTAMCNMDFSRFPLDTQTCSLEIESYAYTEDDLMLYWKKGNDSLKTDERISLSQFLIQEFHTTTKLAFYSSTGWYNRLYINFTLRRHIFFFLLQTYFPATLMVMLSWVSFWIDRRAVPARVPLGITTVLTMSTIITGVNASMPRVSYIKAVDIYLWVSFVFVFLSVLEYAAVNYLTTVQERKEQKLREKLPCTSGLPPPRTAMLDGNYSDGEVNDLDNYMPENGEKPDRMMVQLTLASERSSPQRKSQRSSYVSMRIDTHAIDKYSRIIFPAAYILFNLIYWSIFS
measurement.description: two-electrode voltage clamp in Xenopus oocytes, inhibition of GABA
quantity.kind: pIC50
For clarity, pIC50 is expressed as the negative log10 of concentration in mol/L.

**Query** I have this compound here, Oc1ccc(/C=C/c2cc(O)cc(O)c2)cc1 , and I need its recorded pIC50.
**Result** 4.54
